This collection of values is drawn from paper PMC8179049.

# Lookup of reported melting point keyed by entry

Study these solved cases before continuing.
Data request: Which value of melting point has been reported for O=C(O)C(=O)CC(Cc1ccccc1)C(=O)O (stereo not shown) in the records?
Data returned: > 240 °C (dec.)

Data request: Which value of melting point has been reported for Cc1cc(C(=O)O)ccc1C(=O)C(=O)O in the records?
Data returned: > 320 °C (dec.)

Data request: Which value of melting point has been reported for O=C(O)C(=O)c1ccc(C(=O)O)c(F)c1 in the records?
Data returned: > 260 °C (dec.)

Data request: Which value of melting point has been reported for O=C(O)C(=O)c1ccc(C(=O)O)cc1F in the records?
Data returned: > 310 °C (dec.)

Data request: Which value of melting point has been reported for O=C(O)C(=O)c1ccc(C(=O)O)cc1 in the records?
Data returned: > 350 °C (dec.)

Data request: Which value of melting point has been reported for O=C(O)C(=O)c1ccc(C(=O)O)cc1Br in the records?
Data returned: > 300 °C (dec.)

---
Data request: Which value of melting point has been reported for O=C(O)C(=O)C12CCC(C(=O)O)(CC1)CC2 in the records?
Data returned: > 300 °C (dec.)

Data request: Which value of melting point has been reported for O=C(O)CC(Cc1ccc(F)cc1)C(=O)C(=O)O (stereo not shown) in the records?
Data returned: > 250 °C (dec.)

Data request: Which value of melting point has been reported for O=C(O)C(=O)CC(CCCc1ccccc1)C(=O)O (stereo not shown) in the records?
Data returned: > 220 °C (dec.)

Data request: Which value of melting point has been reported for O=C(O)C(=O)c1ccc(C(=O)O)s1 in the records?
Data returned: > 285 °C (dec.)

---

Target: UniProt:Q12797
Sequence (Q12797 315-758): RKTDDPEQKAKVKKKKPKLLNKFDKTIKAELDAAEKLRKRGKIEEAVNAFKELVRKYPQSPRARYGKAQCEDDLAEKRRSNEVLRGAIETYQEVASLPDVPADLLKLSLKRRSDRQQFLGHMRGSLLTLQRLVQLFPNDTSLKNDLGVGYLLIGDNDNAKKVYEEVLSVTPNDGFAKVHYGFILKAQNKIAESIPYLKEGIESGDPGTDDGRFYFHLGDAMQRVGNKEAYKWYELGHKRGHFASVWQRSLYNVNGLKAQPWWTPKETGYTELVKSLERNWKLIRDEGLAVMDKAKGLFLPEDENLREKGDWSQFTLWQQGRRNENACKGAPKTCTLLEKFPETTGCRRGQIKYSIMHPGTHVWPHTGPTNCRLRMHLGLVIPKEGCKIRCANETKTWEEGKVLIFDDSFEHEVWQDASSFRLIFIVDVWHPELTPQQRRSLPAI
Assay: SPE-MS AspH turnover assay in the absence of 2OG (2OG derivative as cosubstrate);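 also: percent conversion = hydroxylated cyclic peptide peak area relative to summed substrate plus product areas, taken from +2 charge state ion chromatograms by solid phase extraction MS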
Details: 330 μM 2OG or 2OG derivative, 0.1 μM AspH, 2 μM hFX-CP101-119, 50 μM FAS, t = 15 min
VALUE TYPE: AspH-catalyzed substrate conversion (hydroxylation of hFX-CP101-119)

Study these solved cases before continuing.
Data request: Which value of AspH-catalyzed substrate conversion (hydroxylation of hFX-CP101-119) has been reported for CC(C)(C)CCC(CC(=O)O)C(=O)C(=O)O (stereo not shown) [compound 19] in the records?
Data returned: < 1%

Data request: Which value of AspH-catalyzed substrate conversion (hydroxylation of hFX-CP101-119) has been reported for CCC(CC(=O)C(=O)O)C(=O)O (stereo not shown) [compound 27] in the records?
Data returned: < 1%

Data request: Which value of AspH-catalyzed substrate conversion (hydroxylation of hFX-CP101-119) has been reported for O=C(O)C(=O)C1(C(=O)O)CC1 [compound 48] in the records?
Data returned: < 1%

Data request: Which value of AspH-catalyzed substrate conversion (hydroxylation of hFX-CP101-119) has been reported for O=C(O)C(=O)c1ccc(C(=O)O)c(Br)c1 [compound 45] in the records?
Data returned: ~8%

Data request: Which value of AspH-catalyzed substrate conversion (hydroxylation of hFX-CP101-119) has been reported for O=C(O)C(=O)C12CCC(C(=O)O)(CC1)CC2 [compound 47] in the records?
Data returned: ~8%

Data request: Which value of AspH-catalyzed substrate conversion (hydroxylation of hFX-CP101-119) has been reported for O=C(O)C(=O)c1cscc1C(=O)O [compound 37] in the records?
Data returned: < 1%

---
Data request: Which value of AspH-catalyzed substrate conversion (hydroxylation of hFX-CP101-119) has been reported for O=C(O)C(=O)c1ccc(C(=O)O)cc1 [compound 41, 4-carboxyphenylglyoxylic acid] in the records?
Data returned: ~80%
